# target_or_system: Bile acid receptor (Homo sapiens)
# Sequence (Q96RI1 whole entry): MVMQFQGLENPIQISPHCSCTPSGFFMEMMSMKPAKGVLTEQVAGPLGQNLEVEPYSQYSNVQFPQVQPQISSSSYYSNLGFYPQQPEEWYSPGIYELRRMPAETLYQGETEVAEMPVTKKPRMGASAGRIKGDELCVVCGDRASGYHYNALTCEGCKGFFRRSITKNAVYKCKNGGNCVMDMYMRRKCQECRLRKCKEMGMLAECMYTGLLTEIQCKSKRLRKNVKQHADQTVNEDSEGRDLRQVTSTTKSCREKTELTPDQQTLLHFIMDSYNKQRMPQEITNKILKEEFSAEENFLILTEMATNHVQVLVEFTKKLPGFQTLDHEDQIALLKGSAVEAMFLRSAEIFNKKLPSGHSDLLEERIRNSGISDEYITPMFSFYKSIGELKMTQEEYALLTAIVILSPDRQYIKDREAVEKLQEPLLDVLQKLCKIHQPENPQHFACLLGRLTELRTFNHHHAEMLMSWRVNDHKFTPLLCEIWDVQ
# method_summary: Activation of human farnesoid X receptor in FRET assay
Provide the recorded EC50 for the entries that follow.
One number for each entry, in nM.

These solved cases illustrate the format of a correct answer.
O=C(O)/C=C/c1cccc(N(Cc2ccc(/C=C/c3ccccc3)cc2)C(=O)C2CCCCC2)c1 | 255
O=C(O)/C=C/c1cccc(N(Cc2ccc(-c3ccc4c(c3)OCO4)cc2)C(=O)C2CCCCC2)c1 | 222

The record that follows has no EC50 shown yet.
Record CN(C)c1ccc(-c2ccc(CN(C(=O)C3CCCCC3)c3cccc(/C=C/C(=O)O)c3)cc2)cc1 . Reported EC50: 255
